test system: spores of ATCC BBA1870 strain; assay: Inhibition of germination of C. difficile spores (MIC), strain ATCC BBA1870; assay type: cell-based; conditions: Clostridioides difficile, ATCCBBA1870STRAIN, 1 h; strain 1870; sodium taurocholate as germinant, BHIS medium, 37° C., OD580 for 60 min; read-out: MIC (minimum concentration that completely inhibits spore germination)
Measurement Type: MIC (µM)

# Compound, Experimental Result
measured = [
    ("CC(C)[C@@H](NC(=O)C[C@@H](C)[C@H]1CC[C@H]2[C@@H]3[C@H](O)C[C@@H]4C[C@@H](O)CC[C@]4(C)[C@H]3CC[C@]12C)c1ccc(Cl)s1", 4),
    ("CCCCCCCC(=O)O[C@@H]1C[C@@H]2CC(=O)CC[C@]2(C)[C@H]2CC[C@]3(C)[C@@H]([C@H](C)CC(=O)N[C@@H](c4ccc(Br)s4)C(C)C)CC[C@H]3[C@H]12", 256),
    ("CC(NC(=O)C[C@@H](C)[C@H]1CC[C@H]2[C@@H]3[C@H](O)C[C@@H]4C[C@H](O)CC[C@]4(C)[C@H]3CC[C@]12C)c1ccccc1 (some centres unmarked)", 8),
    ("CC(=O)O[C@@H]1CC2=CC(=O)C=C[C@]2(C)[C@H]2CC[C@]3(C)[C@@H]([C@H](C)CC(=O)N[C@@H](c4ccc(Br)s4)C(C)C)CC[C@H]3[C@H]12", 0.5),
    ("C[C@H](CC(=O)NC(c1ccccc1)c1cccs1)[C@H]1CC[C@H]2[C@@H]3C(=O)C[C@@H]4CC(=O)CC[C@]4(C)[C@H]3CC[C@]12C (some centres unmarked)", 64),
]

----------
test system: spores of ATCC 630 strain; experiment: Inhibition of germination of C. difficile spores (MIC), strain ATCC 630; format: cell-based; details: Clostridioides difficile, ATCC630, 1 h; strain 630; sodium taurocholate as germinant, BHIS medium, 37° C., OD580 for 60 min; read-out: MIC (minimum concentration that completely inhibits spore germination)
Friendly reminder: MIC below 0.5 µM is Y, at or above is N.

# Compound, Assigned Class
rows = [
    ("C[C@H](CC(=O)NC(c1cccs1)C1CCCC1)[C@H]1CC[C@H]2[C@@H]3C(=O)C[C@@H]4CC(=O)CC[C@]4(C)[C@H]3CC[C@]12C (stereo partly shown)", "N"),
    ("CC(C)[C@@H](NC(=O)C[C@@H](C)[C@H]1CC[C@H]2[C@@H]3C(=O)C[C@@H]4CC(=O)CC[C@]4(C)[C@H]3CC[C@]12C)c1ccc(Br)s1", "Y"),
    ("C[C@H](CC(=O)NCc1cccs1)[C@H]1CC[C@H]2[C@@H]3[C@H](O)C[C@@H]4C[C@H](O)CC[C@]4(C)[C@H]3CC[C@]12C", "N"),
    ("CC(C)C(NC(=O)C[C@@H](C)[C@H]1CC[C@H]2[C@@H]3[C@H](OS(=O)(=O)O)C[C@@H]4CC(=O)CC[C@]4(C)[C@H]3CC[C@]12C)c1ccc(Br)s1 (stereo partly shown)", "N"),
    ("CCCCCCCCCCCC(NC(=O)C[C@@H](C)[C@H]1CC[C@H]2[C@@H]3C(=O)C[C@@H]4CC(=O)CC[C@]4(C)[C@H]3CC[C@]12C)c1cccs1 (stereo partly shown)", "N"),
    ("CC(C)[C@@H](NC(=O)C[C@@H](C)[C@H]1CC[C@H]2[C@@H]3[C@H](N)C[C@@H]4CC(=O)CC[C@]4(C)[C@H]3CC[C@]12C)c1ccc(Cl)s1", "N"),
    ("C[C@H](CC(=O)NCc1ccco1)[C@H]1CC[C@H]2[C@@H]3[C@@H](O)C[C@@H]4C[C@H](O)CC[C@]4(C)[C@H]3CC[C@]12C", "N"),
    ("CC(C)C(NC(=O)C[C@@H](C)[C@H]1CC[C@H]2[C@@H]3[C@H](OS(=O)(=O)O)C[C@@H]4CC(=O)CC[C@]4(C)[C@H]3CC[C@]12C)c1ccc(Cl)s1 (stereo partly shown)", "N"),
    ("CC[C@@H](NC(=O)C[C@@H](C)[C@H]1CC[C@H]2[C@@H]3[C@H](O)[C@H](O)[C@@H]4CC(=O)CC[C@]4(C)[C@H]3CC[C@]12C)c1cccs1", "N"),
    ("C[C@H](CC(=O)N[C@H](c1cccs1)C1CC1)[C@H]1CC[C@H]2[C@@H]3C(=O)C[C@@H]4CC(=O)CC[C@]4(C)[C@H]3CC[C@]12C", "N"),
    ("C[C@H](CC(=O)NCc1nccs1)[C@H]1CC[C@H]2[C@@H]3C(=O)C[C@@H]4C[C@H](O)CC[C@]4(C)[C@H]3CC[C@]12C", "N"),
    ("CC(C)[C@@H](NC(=O)C[C@@H](C)[C@H]1CC[C@H]2[C@@H]3[C@H](O)C[C@@H]4C[C@@H](O)CC[C@]4(C)[C@H]3CC[C@]12C)c1ccc(Cl)s1", "N"),
    ("CC(C)[C@@H](NC(=O)C[C@@H](C)[C@H]1CC[C@H]2[C@@H]3[C@H](N)C[C@@H]4C[C@H](O)CC[C@]4(C)[C@H]3CC[C@]12C)c1ccc(Cl)s1", "N"),
    ("CC[C@@H](NC(=O)C[C@@H](C)[C@H]1CC[C@H]2[C@@H]3[C@H](O)CC4=CC(=O)C=C[C@]4(C)[C@H]3CC[C@]12C)c1ccc(Cl)s1", "Y"),
    ("CC[C@@H](NC(=O)C[C@@H](C)[C@H]1CC[C@H]2[C@@H]3[C@H](OC(C)=O)CC4=CC(=O)CC[C@]4(C)[C@H]3CC[C@]12C)c1ccc(Br)s1", "Y"),
]

----------
test system: spores of ATCC BBA1870 strain; assay: Inhibition of germination of C. difficile spores (MIC), strain ATCC BBA1870; format: cell-based; settings: Clostridioides difficile, ATCCBBA1870STRAIN, 1 h; strain 1870; sodium taurocholate as germinant, BHIS medium, 37° C., OD580 for 60 min; read-out: MIC (minimum concentration that completely inhibits spore germination)
Measurement Type: MIC (µM)

# Compound, Target Of Assay, Measurement Type, Experimental Result
rows = [
    ("CC[C@@H](NC(=O)C[C@@H](C)[C@H]1CC[C@H]2[C@@H]3[C@H](OS(=O)(=O)O)C[C@@H]4CC(=O)CC[C@]4(C)[C@H]3CC[C@]12C)c1ccc(Br)s1 [Compound I-109]", "spores of ATCC BBA1870 strain", "MIC", 0.5),
    ("CC(C)[C@@H](NC(=O)C[C@@H](C)[C@H]1CC[C@H]2[C@@H]3[C@H](O)C[C@@H]4CC(=O)CC[C@]4(C)[C@H]3CC[C@]12C)c1ccc(S(=O)(=O)O)s1 [Compound I-103]", "spores of ATCC BBA1870 strain", "MIC", 16),
    ("CC[C@@H](NC(=O)C[C@@H](C)[C@H]1CC[C@H]2[C@@H]3[C@H](O)CC4=CC(=O)CC[C@]4(C)[C@H]3CC[C@]12C)c1ccc(Cl)s1 [Compound I-157-2]", "spores of ATCC BBA1870 strain", "MIC", 0.25),
    ("C[C@H](CC(=O)NCc1ccccn1)[C@H]1CC[C@H]2[C@@H]3C(=O)C[C@@H]4C[C@H](O)CC[C@]4(C)[C@H]3CC[C@]12C [Compound I-16]", "spores of ATCC BBA1870 strain", "MIC", 256),
    ("C[C@H](CC(=O)NC(c1cccs1)C1CCC1)[C@H]1CC[C@H]2[C@@H]3C(=O)C[C@@H]4CC(=O)CC[C@]4(C)[C@H]3CC[C@]12C (some centres unmarked) [Compound I-57]", "spores of ATCC BBA1870 strain", "MIC", 32),
]

----------
Reported log10(MIC) values for a set of molecules
system: spores of ATCC 630 strain; assay: Inhibition of germination of C. difficile spores (MIC), strain ATCC 630; format: cell-based; settings: Clostridioides difficile, ATCC630, 1 h; strain 630; sodium taurocholate as germinant, BHIS medium, 37° C., OD580 for 60 min; read-out: MIC (minimum concentration that completely inhibits spore germination)
Measurement Type: log10(MIC) (log10 of the value in µM)

# Molecule, log10(MIC)
measured = [
    ("CC(C)[C@@H](NC(=O)C[C@@H](C)[C@H]1CC[C@H]2[C@@H]3[C@H](O)C[C@@H]4C[C@H](O)CC[C@]4(C)[C@H]3CC[C@]12C)c1ccc(Br)s1", 0.00),
    ("CC(C)[C@@H](NC(=O)C[C@@H](C)[C@H]1CC[C@H]2[C@@H]3C[C@H](O)[C@@H]4C[C@H](O)CC[C@]4(C)[C@H]3CC[C@]12C)c1ccc(Br)s1", 0.00),
    ("CC(C)[C@@H](NC(=O)C[C@@H](C)[C@H]1CC[C@H]2[C@@H]3[C@H](O)[C@H](O)[C@@H]4C[C@H](O)CC[C@]4(C)[C@H]3CC[C@]12C)c1ccc(Cl)s1", 1.20),
    ("CC(C)C(NC(=O)C[C@@H](C)[C@H]1CC[C@H]2[C@@H]3[C@H](O)[C@H](O)[C@@H]4C[C@H](O)CC[C@]4(C)[C@H]3CC[C@]12C)c1cccs1 (stereo partly drawn)", 1.51),
    ("CC[C@@H](NC(=O)C[C@@H](C)[C@H]1CC[C@H]2[C@@H]3[C@H](O)C[C@@H]4CC(=O)CC[C@]4(C)[C@H]3CC[C@]12C)c1ccc(S(=O)(=O)O)s1", 0.90),
    ("CC(C)[C@@H](NC(=O)C[C@@H](C)[C@H]1CC[C@H]2[C@@H]3[C@@H](O)C[C@@H]4C[C@H](O)CC[C@]4(C)[C@H]3CC[C@]12C)c1ccc(Br)s1", 1.51),
    ("CC(NC(=O)C[C@@H](C)[C@H]1CC[C@H]2[C@@H]3C(=O)C[C@@H]4CC(=O)CC[C@]4(C)[C@H]3CC[C@]12C)c1ccccc1 (stereo partly drawn)", 0.30),
    ("CC(=O)O[C@@H]1CC2=CC(=O)C=C[C@]2(C)[C@H]2CC[C@]3(C)[C@@H]([C@H](C)CC(=O)N[C@@H](c4ccc(Cl)s4)C(C)C)CC[C@H]3[C@H]12", -0.30),
]
